# system: T1, hFc tagged human LAG3 ECD recombinant protein (human, UniProt P18627 23-450)
# T1 construct: range 23-450; also called biotin labelled hFc tagged human LAG3 ECD; not shown: human IgG Fc tag
# T1 sequence (looked up): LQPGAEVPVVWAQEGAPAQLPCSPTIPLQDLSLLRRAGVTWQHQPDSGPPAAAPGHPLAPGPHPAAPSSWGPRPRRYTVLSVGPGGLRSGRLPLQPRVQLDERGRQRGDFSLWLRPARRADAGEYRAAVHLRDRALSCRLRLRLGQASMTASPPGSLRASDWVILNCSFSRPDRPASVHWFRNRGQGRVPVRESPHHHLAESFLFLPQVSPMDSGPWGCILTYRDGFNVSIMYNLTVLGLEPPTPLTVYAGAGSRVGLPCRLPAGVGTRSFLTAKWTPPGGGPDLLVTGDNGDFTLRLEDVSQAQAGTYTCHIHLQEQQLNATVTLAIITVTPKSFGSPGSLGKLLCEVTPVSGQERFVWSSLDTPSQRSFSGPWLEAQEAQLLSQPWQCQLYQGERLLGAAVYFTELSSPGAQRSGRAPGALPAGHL
# experiment: competitive ELISA: excess competitor, biotin hFc-LAG3 ECD, coated BAP-050
# Procedure: Competitive ELISA assay was used for epitope binning of the purified hybridoma antibodies. […] After washing, HRP labeled anti-streptavidin (SA) 2nd antibody (Sigma) was added and incubated at 37° C. for 1 hour. Then, 100 μl/well of TMB solution (Biotechnology) was added. After incubation for 15 minutes at room temperature, the reaction was stopped by the addition of 50 μl of 1N HCl. OD 450 nm was read. Competition ratio was calculated.
attribute_measured: % competition (%)
Reply numerically in %, unit not repeated.

| binder | value_observed |
| --- | --- |
| Antibody 023 (antibody, V domains shown, mouse hybridoma antibody) VH: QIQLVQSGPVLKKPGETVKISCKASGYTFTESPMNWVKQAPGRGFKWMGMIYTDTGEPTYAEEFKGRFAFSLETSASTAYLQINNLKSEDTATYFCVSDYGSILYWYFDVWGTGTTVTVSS VL: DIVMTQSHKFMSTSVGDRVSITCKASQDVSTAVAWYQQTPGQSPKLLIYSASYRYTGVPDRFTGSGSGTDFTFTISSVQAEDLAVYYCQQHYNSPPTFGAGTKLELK | -2.7 |

Q: Return the recorded % competition value; entry: Antibody 027 (antibody, V domains shown, mouse hybridoma antibody) VH: EVKILQSGGGLVQPGGSLKLSCAASGIDFSRYWMSWVRRTPGKGLEWIGEINPDSSTINYAPSLKDKFIISRDNAKNTLYLQMSKVRSEDTALYYCARLGIIPTYHYGSSGYYYAMDYWGQGTSVTVSS VL: DVLMTQTPLSLPVSLGDRASISCRSSQTIVHGNGHTSLEWYLQKPGQSPQLLIYKVSNRFSGVPDRFSASGSGTDFTLTISRVEAEDLGVYYCFQVSHVPYTFGGGTKLEIK
A: 85.1

Q: Using the record for Antibody 047 (antibody, V domains shown, mouse hybridoma antibody) VH: QVQLQQSGAELARPGASVKLSCKASGYSFTSYGVNWVKQRTGQGLEWIGEIYPRSGNTYYNERFGDKATLTADKSSSTAYMEIRSLTSEDSAVYFCARGGTYDGYYYAMDYWGQGTSVTVSS VL: DIVLTQSPASLAVSLGQRATISCRASESVDNFGSSFMHWYQQKPGQAPKLLIYRASNLESGIPARFSGSGSRTDFTLTINPVETDDVATYYCQQVNKDPRTFGGGTKLEIK , state its measured % competition.
A: 87.4
